Just for reference, paper PMC3744939 is where these values come from.

- experimental-system: recombinant T. b. brucei CTPS (Trypanosoma brucei brucei, UniProt Q4GZ95)
- Sequence (Q4GZ95 1-589): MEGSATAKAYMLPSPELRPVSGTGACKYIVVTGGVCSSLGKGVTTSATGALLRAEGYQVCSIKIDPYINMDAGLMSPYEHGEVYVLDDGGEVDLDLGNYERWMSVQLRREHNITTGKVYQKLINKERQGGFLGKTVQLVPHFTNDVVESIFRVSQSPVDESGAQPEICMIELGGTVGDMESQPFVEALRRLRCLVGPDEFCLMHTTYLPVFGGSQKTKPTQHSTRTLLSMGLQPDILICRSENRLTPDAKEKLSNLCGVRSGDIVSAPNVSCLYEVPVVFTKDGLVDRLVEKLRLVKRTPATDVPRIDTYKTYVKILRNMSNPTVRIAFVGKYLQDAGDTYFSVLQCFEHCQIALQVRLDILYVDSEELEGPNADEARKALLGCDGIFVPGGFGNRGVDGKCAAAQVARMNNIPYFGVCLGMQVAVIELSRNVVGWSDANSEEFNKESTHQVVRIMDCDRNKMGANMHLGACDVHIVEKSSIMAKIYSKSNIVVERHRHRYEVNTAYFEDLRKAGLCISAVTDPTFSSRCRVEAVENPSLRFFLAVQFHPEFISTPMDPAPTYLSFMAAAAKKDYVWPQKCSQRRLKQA
- assay-explanation: CTPS enzyme assay
endpoint: IC50

Sample answers from the record:
Sample CCN1N=C(Cl)C[C@H]1[C@H](N)C(=O)O (relative stereo) [Compound 8b] ; IC50 observed: > 500 µM

Sample N[C@H](C(=O)O)[C@@H]1CC(Cl)=NN1Cc1ccccc1 (relative stereo) [Compound 7b] ; IC50 observed: > 500 µM

Sample COC1=NO[C@H]([C@H](N)C(=O)O)C1 [Compound 2] ; IC50 observed: > 500 µM

Let us examine a further case.
Sample O=C(N[C@H](C(=O)O)[C@@H]1CC(Br)=NO1)OCc1ccccc1 [Compound 6] ; IC50 observed: 1.74 µM
